Origin of values: patent US9593127B2

target: human mGlu5 receptor (CHO T-REx h-mGluR5 cells) (Homo sapiens (Human)); experiment: Calcium fluorescence measurement, potentiation of mGlu5 activation at EC20 of glutamate; assay type: cell-based; conditions: potentiation, agonist glutamate at EC20; read-out: EC50 nM Glutam.
metric-name: EC50 (nM)

Sample records with EC50:
CC(C)CCOC(=O)N1CCC2C(C#Cc3cccc(Cl)c3)=NOC21 (stereo not shown)
542
O=C(C1CCOCC1)N1CCC2C(C#Cc3cccc(Cl)c3)=NOC21 (stereo not shown)
301
CN1CCN(C(=O)N2CCC3C(C#Cc4cccc(Cl)c4)=NOC32)CC1 (stereo not shown)
1100
O=C(C1CCCC1)N1CCC2C(C#Cc3cccc(Cl)c3)=NOC21 (stereo not shown)
108
O=C(NC1CCCC1)N1CCC2C(C#Cc3cccc(Cl)c3)=NOC21 (stereo not shown)
96.9

A = CC(C)(C)NC(=O)N1CCC2C(C#Cc3cccc(Cl)c3)=NOC21 (stereo not shown)
B = O=C(OCC1CC1)N1CCC2C(C#Cc3cccc(Cl)c3)=NOC21 (stereo not shown)
Prompt line: Between item A and item B , which reported EC50 is smaller? Answer = label.
Response line: A
(A: 54.6 nM, B: 777 nM)

----------
target: human mGlu5 receptor (CHO T-REx h-mGluR5 cells) (Homo sapiens (Human)); test: Radioligand binding assay at cloned mGluR5 ([3H]MPEP displacement); conditions: 4 nM [3H]MPEP, read-out: h.c. mglu R5 IC50
metric-name: IC50 (nM)

CON(C)C(=O)N1CCC2C(C#Cc3cccc(C)c3)=NOC21 (stereo not drawn)
22
CCN(CC)C(=O)N1CCC2C(C#Cc3cccc(C)c3)=NOC21 (stereo not drawn)
14.8

P = Cc1cccc(C#CC2=NOC3C2CCN3C(=O)N2CCCCC2)c1 (stereo not drawn)
Q = CON(C)C(=O)N1CCC2C(C#Cc3cccc(C)n3)=NOC21 (stereo not drawn)
R = CN(C)C(=O)N1CCC2C(C#Cc3cccc(Cl)c3)=NOC21 (stereo not drawn)
Prompt line: Hi! Can you put these in order of IC50, lowest number first? Answer by naming the labels in the order asked.
Response line: P, R, Q

----------
target: human mGlu5 receptor (CHO T-REx h-mGluR5 cells) (Homo sapiens (Human), UniProt P41594); experiment: Radioligand binding assay at cloned mGluR5 ([3H]MPEP displacement); details: 4 nM [3H]MPEP, read-out: h.c. mglu R5 IC50
Sequence (P41594 21-1212): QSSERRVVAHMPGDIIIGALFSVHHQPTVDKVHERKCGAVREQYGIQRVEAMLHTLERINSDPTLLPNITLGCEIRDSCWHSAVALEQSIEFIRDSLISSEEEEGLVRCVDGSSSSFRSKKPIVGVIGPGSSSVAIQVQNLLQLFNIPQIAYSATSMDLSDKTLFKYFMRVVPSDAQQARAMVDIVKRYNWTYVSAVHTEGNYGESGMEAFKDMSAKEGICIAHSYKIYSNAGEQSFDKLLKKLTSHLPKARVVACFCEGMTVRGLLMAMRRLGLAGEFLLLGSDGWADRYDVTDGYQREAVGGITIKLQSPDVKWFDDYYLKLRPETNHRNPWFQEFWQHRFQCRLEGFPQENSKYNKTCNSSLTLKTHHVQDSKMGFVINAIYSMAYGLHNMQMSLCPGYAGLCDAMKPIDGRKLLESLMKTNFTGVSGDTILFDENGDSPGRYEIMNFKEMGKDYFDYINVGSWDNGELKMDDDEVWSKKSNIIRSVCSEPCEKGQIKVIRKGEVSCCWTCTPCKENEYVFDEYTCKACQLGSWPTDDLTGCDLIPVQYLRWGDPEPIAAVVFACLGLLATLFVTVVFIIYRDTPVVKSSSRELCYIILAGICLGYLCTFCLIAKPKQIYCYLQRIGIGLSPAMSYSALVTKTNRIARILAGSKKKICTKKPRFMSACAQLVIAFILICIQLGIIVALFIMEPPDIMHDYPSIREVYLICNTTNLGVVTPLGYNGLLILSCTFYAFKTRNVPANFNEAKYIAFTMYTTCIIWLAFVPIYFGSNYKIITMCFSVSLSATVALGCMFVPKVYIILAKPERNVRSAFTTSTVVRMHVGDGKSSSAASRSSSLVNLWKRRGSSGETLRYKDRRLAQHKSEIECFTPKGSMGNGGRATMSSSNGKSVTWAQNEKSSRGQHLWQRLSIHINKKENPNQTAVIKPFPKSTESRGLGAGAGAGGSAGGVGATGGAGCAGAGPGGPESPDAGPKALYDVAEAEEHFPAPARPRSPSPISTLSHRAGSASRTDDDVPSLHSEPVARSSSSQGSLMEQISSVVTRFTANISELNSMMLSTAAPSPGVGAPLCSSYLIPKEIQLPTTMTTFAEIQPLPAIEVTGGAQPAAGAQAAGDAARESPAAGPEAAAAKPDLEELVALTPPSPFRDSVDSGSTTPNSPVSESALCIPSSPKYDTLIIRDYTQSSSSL
pIC50: −log10 of the molar value.
metric-name: pIC50

O=C(N1CCCCC1)N1CCC2C(C#Cc3cccc(Cl)c3)=NOC21 (stereo not drawn)
7.90
O=C(N1CCCC1)N1CCC2C(C#Cc3cccc(Cl)c3)=NOC21 (stereo not drawn)
7.82
CCN(C(=O)N1CCC2C(C#Cc3cccc(Cl)c3)=NOC21)C(C)C (stereo not drawn)
8.16
Cc1cccc(C#CC2=NOC3C2CCN3C(=O)OC(C)(C)C)c1 (stereo not drawn)
8.44

I = O=C(c1ccco1)N1CCC2C(C#Cc3cccc(Cl)c3)=NOC21 (stereo not drawn)
II = CCOC(=O)N1CCC2C(C#Cc3cccc(Cl)c3)=NOC21 (stereo not drawn)
Prompt line: Between item I and item II , which reported pIC50 is smaller? Answer = label.
Response line: II
(II: 7.09, I: 7.53)

P = CCOC(=O)N1CCC2C(C#Cc3cccc(C)c3)=NOC21 (stereo not drawn)
Q = Cc1cccc(C#CC2=NOC3C2CCN3C(=O)N2CCOCC2)c1 (stereo not drawn)
Prompt line: Between item P and item Q , which reported pIC50 is smaller? Answer = label.
Response line: P
(P: 6.82, Q: 7.30)

----------
biological target: human mGlu5 receptor (CHO T-REx h-mGluR5 cells) (Homo sapiens (Human)); experiment: Calcium fluorescence measurement, antagonist potency against EC80 of quisqualate; type: cell-based; details: agonist quisqualate at EC80; read-out: h.c. mgluR5 Calcium IC50
metric-name: IC50

Sample records with IC50:
Cc1cccc(C#CC2=NOC3C2CCN3C(=O)N2CCCC2)c1 (centres unmarked) [Example 11]
> 1000 nM
CC(C)(C)OC(=O)N1CCC2C(C#Cc3cccc(Cl)c3)=NOC21 (centres unmarked) [Example 1]
> 1000 nM
CN(C)C(=O)N1CCC2C(C#Cc3cccc(Cl)c3)=NOC21 (centres unmarked) [Example 7]
212 nM

So, O=C(N1CCCCC1)N1CCC2C(C#Cc3cccc(Cl)c3)=NOC21 (centres unmarked) [Example 8] ? Its IC50 was > 1000 nM

So, CCN(CC)C(=O)N1CCC2C(C#Cc3cccc(C)c3)=NOC21 (centres unmarked) [Example 14] ? Its IC50 was > 1000 nM

----------
biological target: human mGlu5 receptor (CHO T-REx h-mGluR5 cells) (Homo sapiens (Human), UniProt P41594); experiment: Calcium fluorescence measurement, antagonist potency against EC80 of quisqualate; assay type: cell-based; conditions: agonist quisqualate at EC80; read-out: h.c. mgluR5 Calcium IC50
pIC50: −log10 of the molar value.
The entries below are paired with their reported pIC50.

Sample records with pIC50:
Cc1cccc(C#CC2=NOC3C2CCN3C(=O)N2CCOCC2)c1 (stereo not drawn)
< 6.00
CON(C)C(=O)N1CCC2C(C#Cc3cccc(C)c3)=NOC21 (stereo not drawn)
7.68
CCOC(=O)N1CCC2C(C#Cc3cccc(Cl)c3)=NOC21 (stereo not drawn)
7.26
O=C(N1CCCC1)N1CCC2C(C#Cc3cccc(Cl)c3)=NOC21 (stereo not drawn)
< 6.00
Cc1cccc(C#CC2=NOC3C2CCN3C(=O)OC(C)(C)C)c1 (stereo not drawn)
< 6.00

Kindly review the next compound as well.
So, O=C(c1ccco1)N1CCC2C(C#Cc3cccc(Cl)c3)=NOC21 (stereo not drawn) ? Its pIC50 was < 6.00

----------
target: human mGlu5 receptor (CHO T-REx h-mGluR5 cells) (Homo sapiens (Human), UniProt P41594); test: Calcium fluorescence measurement, potentiation of mGlu5 activation at EC20 of glutamate; assay type: cell-based; conditions: agonist glutamate
metric-name: Fold Increase Glutam. (fold)

Cc1ccc(C(=O)N2CCC3C(C#Cc4cccc(Cl)c4)=NOC32)o1 (stereo not shown)
0
O=C(N1CCOCC1)N1CCC2C(C#Cc3cccc(Cl)c3)=NOC21 (stereo not shown)
5.1
O=C(c1ccoc1)N1CCC2C(C#Cc3cccc(Cl)c3)=NOC21 (stereo not shown)
0
CC(C)OC(=O)N1CCC2C(C#Cc3cccc(Cl)c3)=NOC21 (stereo not shown)
0
O=C(NC1CCCC1)N1CCC2C(C#Cc3cccc(Cl)c3)=NOC21 (stereo not shown)
5.11
CC(C)(C)COC(=O)N1CCC2C(C#Cc3cccc(Cl)c3)=NOC21 (stereo not shown)
5.8
O=C(C1CCOCC1)N1CCC2C(C#Cc3cccc(Cl)c3)=NOC21 (stereo not shown)
5.29
O=C(Nc1cccnc1)N1CCC2C(C#Cc3cccc(Cl)c3)=NOC21 (stereo not shown)
0
O=C(C1CCCC1)N1CCC2C(C#Cc3cccc(Cl)c3)=NOC21 (stereo not shown)
3.69
CC(C)(C)NC(=O)N1CCC2C(C#Cc3cccc(Cl)c3)=NOC21 (stereo not shown)
5.09

a = O=C(OCC1CC1)N1CCC2C(C#Cc3cccc(Cl)c3)=NOC21 (stereo not shown)
b = CC(C)NC(=O)N1CCC2C(C#Cc3cccc(Cl)c3)=NOC21 (stereo not shown)
c = CN1CCN(C(=O)N2CCC3C(C#Cc4cccc(Cl)c4)=NOC32)CC1 (stereo not shown)
Prompt line: Sort by Fold Increase Glutam., descending. Answer by naming the labels in the order asked.
Response line: a, c, b

----------
Target: human mGlu5 receptor (CHO T-REx h-mGluR5 cells) (Homo sapiens (Human), UniProt P41594)
Test: Radioligand binding assay at cloned mGluR5 ([3H]MPEP displacement)
Settings: 4 nM [3H]MPEP, read-out: h.c. mglu R5 IC50
From the text: Cell lines stably transfected were generated using inducible expression vectors encoding human mGlu5 receptor using the Tetracycline-Regulated Expression system (T-REx™ system, Invitrogen, Life Technologies). Human mGluR5 open reading frame (ORF), comprehensive of the stop codon, were cloned into the pcDNA4/TO/myc-His™ A vector, carrying the TetO2 sequences. The insertion site was HindIII-PstI for mGluR5 receptors. […]
metric-name: IC50 (nM)

CC(C)(C)OC(=O)N1CCC2C(C#Cc3cccc(Cl)c3)=NOC21 (centres unmarked) [Example 1]
3.87

A = O=C(N1CCOCC1)N1CCC2C(C#Cc3cccc(Cl)c3)=NOC21 (centres unmarked) [Example 6]
B = Cc1cccc(C#CC2=NOC3C2CCN3C(=O)N2CCCC2)c1 (centres unmarked) [Example 11]
Prompt line: So which one has the bigger IC50 here, A or B ? Answer = label.
Response line: A

----------
molecular target: human mGlu5 receptor (CHO T-REx h-mGluR5 cells) (Homo sapiens (Human), UniProt P41594); test: Calcium fluorescence measurement, potentiation of mGlu5 activation at EC20 of glutamate; type: cell-based; details: potentiation, agonist glutamate at EC20; read-out: EC50 nM Glutam.
metric-name: EC50 (nM)

a = O=C(OC1CCCC1)N1CCC2C(C#Cc3cccc(Cl)c3)=NOC21 (stereo not drawn) [Example 23]
b = CC(C)(C)COC(=O)N1CCC2C(C#Cc3cccc(Cl)c3)=NOC21 (stereo not drawn) [Example 24]
Prompt line: So which one has the bigger EC50 here, a or b ? Answer = label.
Response line: a
